Give IC50 for every item shown.
molecular target: human CDK9/CyclinT kinase complex (Homo sapiens (Human), UniProt P50750); assay: In Vitro CDK9/CyclinT Assay (IMAP fluorescent polarization); format: biochemical; details: Table 1
Sequence (P50750 whole entry): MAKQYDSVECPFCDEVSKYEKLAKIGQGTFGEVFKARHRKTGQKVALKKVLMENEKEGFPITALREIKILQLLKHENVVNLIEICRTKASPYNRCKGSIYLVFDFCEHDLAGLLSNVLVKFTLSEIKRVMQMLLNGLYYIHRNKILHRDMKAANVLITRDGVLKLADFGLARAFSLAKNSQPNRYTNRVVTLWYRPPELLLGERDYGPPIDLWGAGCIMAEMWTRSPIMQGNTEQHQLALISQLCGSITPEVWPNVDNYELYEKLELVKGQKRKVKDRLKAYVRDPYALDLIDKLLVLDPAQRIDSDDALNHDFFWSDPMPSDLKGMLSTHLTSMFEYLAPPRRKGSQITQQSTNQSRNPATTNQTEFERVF
Sequence (O60563 whole entry partner): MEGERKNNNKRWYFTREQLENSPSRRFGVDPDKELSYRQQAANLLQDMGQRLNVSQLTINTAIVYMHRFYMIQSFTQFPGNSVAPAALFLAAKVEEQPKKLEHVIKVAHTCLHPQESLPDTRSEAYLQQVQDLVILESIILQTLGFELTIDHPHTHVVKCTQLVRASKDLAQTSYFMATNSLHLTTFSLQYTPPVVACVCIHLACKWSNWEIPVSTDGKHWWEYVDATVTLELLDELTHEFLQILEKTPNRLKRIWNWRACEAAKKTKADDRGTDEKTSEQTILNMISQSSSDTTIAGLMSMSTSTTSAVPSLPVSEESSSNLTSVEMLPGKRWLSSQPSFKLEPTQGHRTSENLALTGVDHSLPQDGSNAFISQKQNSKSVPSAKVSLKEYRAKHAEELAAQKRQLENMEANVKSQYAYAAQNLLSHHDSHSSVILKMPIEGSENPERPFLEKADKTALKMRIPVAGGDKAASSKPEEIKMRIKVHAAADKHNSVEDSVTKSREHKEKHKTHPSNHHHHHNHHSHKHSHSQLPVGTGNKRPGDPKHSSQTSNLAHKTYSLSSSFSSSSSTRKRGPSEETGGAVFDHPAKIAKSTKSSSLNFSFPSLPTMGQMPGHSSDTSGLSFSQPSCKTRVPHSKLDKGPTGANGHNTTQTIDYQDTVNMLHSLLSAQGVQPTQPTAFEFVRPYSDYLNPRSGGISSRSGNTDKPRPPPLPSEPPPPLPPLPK

INSERT INTO assay_data (smiles_repr, value_observed) VALUES
  ('COc1ccc(Nc2cc(-c3ccccc3OC)ncn2)cc1C(=O)N(C)N', '< 1000 nM'),
  ('CCOc1ccc(Nc2cc(-c3ccccc3OC)ncn2)cc1[N+](=O)[O-]', '< 10000 nM'),
  ('COc1ccc(Nc2cc(-c3ccc(F)cc3OC)ncn2)cc1NC(N)=O', '< 1000 nM');

Count: 5. Required value per item: IC50.
1. COc1ccc(Nc2cc(-c3ccccc3OC)ncn2)cc1C1=CCNCC1
2. CCOc1ccccc1-c1cc(Nc2cc(F)c(OC)c(C(N)=O)c2)ncn1
3. COc1cc(Nc2cc(-c3ccccc3OC)ncn2)ccc1C(=O)NCCO
4. CCOc1ccccc1-c1cc(Nc2ccc(OC)c([N+](=O)[O-])c2)ncn1
5. COc1ccc(F)cc1-c1cc(Nc2ccc(OC)c([N+](=O)[O-])c2)ncn1

[A]
< 100 nM
< 1000 nM
< 1000 nM
< 1000 nM
< 10000 nM

Entry COc1ccc(Nc2cc(-c3ccccc3OC)ncn2)cc1NS(=O)(=O)NC1CCCCC1 — recorded IC50 = < 1000 nM
